Provide the recorded Known Related Substances Morphine for the entries that follow.
- assay name: Stability indicating HPLC assay and related substances on storage (Example 3)
- Format: physicochemical
- conditions used: 3 months, 40° C./75% RH
Please give the number followed by its unit.

Known results for compounds:
{"compound": "CN1CCC23c4c5ccc(O)c4OC2C(OC2OC(C(=O)O)C(O)C(O)C2O)C=CC3C1C5.CN1CCC23c4c5ccc(O)c4OC2C(OC2OC(C(=O)O)C(O)C(O)C2O)C=CC3C1C5.O=S(=O)(O)O (stereo not drawn) [Morphine-6-glucuronide sulphate]", "Known Related Substances Morphine": "0.37%"}
{"compound": "CN1CCC23c4c5ccc(O)c4OC2C(OC2OC(C(=O)O)C(O)C(O)C2O)C=CC3C1C5.O=P(O)(O)O (stereo not drawn) [Morphine-6-glucuronide phosphate]", "Known Related Substances Morphine": "0.32%"}
{"compound": "CN1CC[C@]23c4c5ccc(O)c4O[C@H]2[C@@H](O[C@@H]2O[C@H](C(=O)O)[C@@H](O)[C@H](O)[C@H]2O)C=C[C@H]3[C@H]1C5 [Morphine-6-glucuronide base, morphine-6-β-D-glucuronide]", "Known Related Substances Morphine": "0.07%"}

Hey, can you go through the list below and give me Known Related Substances Morphine for every item?
1. CN1CCC23c4c5ccc(O)c4OC2C(OC2OC(C(=O)O)C(O)C(O)C2O)C=CC3C1C5.CN1CCC23c4c5ccc(O)c4OC2C(OC2OC(C(=O)O)C(O)C(O)C2O)C=CC3C1C5.O=C(O)C=CC(=O)O (stereo not drawn) [Morphine-6-glucuronide fumarate]
2. CN1CC[C@]23c4c5ccc(O)c4O[C@H]2[C@@H](O[C@@H]2O[C@H](C(=O)O)[C@@H](O)[C@H](O)[C@H]2O)C=C[C@H]3[C@H]1C5.Cl [Morphine-6-glucuronide hydrochloride]
3. CN1CCC23c4c5ccc(O)c4OC2C(OC2OC(C(=O)O)C(O)C(O)C2O)C=CC3C1C5.CN1CCC23c4c5ccc(O)c4OC2C(OC2OC(C(=O)O)C(O)C(O)C2O)C=CC3C1C5.O=C(O)C=CC(=O)O (stereo not drawn) [Morphine-6-glucuronide maleate]

1. 0.45%
2. 1.55%
3. 0.43%

====

- assay name: Stability indicating HPLC assay and related substances on storage (Example 3)
- Assay type: physicochemical
- conditions used: 1 month, 25° C./60% RH
Each record is given Met if its reported Total Known is strictly below 0.9%. Records at or above 0.9% are given Not met.

Worked examples follow.
{"compound": "CN1CCC23c4c5ccc(O)c4OC2C(OC2OC(C(=O)O)C(O)C(O)C2O)C=CC3C1C5.CN1CCC23c4c5ccc(O)c4OC2C(OC2OC(C(=O)O)C(O)C(O)C2O)C=CC3C1C5.O=C(O)C=CC(=O)O (stereo not shown) [Morphine-6-glucuronide fumarate]", "assigned class": "Met"}
{"compound": "Br.CN1CC[C@]23c4c5ccc(O)c4O[C@H]2[C@@H](O[C@@H]2O[C@H](C(=O)O)[C@@H](O)[C@H](O)[C@H]2O)C=C[C@H]3[C@H]1C5 [Morphine-6-glucuronide hydrobromide]", "assigned class": "Met"}
{"compound": "CN1CC[C@]23c4c5ccc(O)c4O[C@H]2[C@@H](O[C@@H]2O[C@H](C(=O)O)[C@@H](O)[C@H](O)[C@H]2O)C=C[C@H]3[C@H]1C5.Cl [Morphine-6-glucuronide hydrochloride]", "assigned class": "Not met"}
{"compound": "CN1CC[C@]23c4c5ccc(O)c4O[C@H]2[C@@H](O[C@@H]2O[C@H](C(=O)O)[C@@H](O)[C@H](O)[C@H]2O)C=C[C@H]3[C@H]1C5 [Morphine-6-glucuronide base, morphine-6-β-D-glucuronide]", "assigned class": "Not met"}
{"compound": "CN1CCC23c4c5ccc(O)c4OC2C(OC2OC(C(=O)O)C(O)C(O)C2O)C=CC3C1C5.CN1CCC23c4c5ccc(O)c4OC2C(OC2OC(C(=O)O)C(O)C(O)C2O)C=CC3C1C5.O=C(O)C=CC(=O)O (stereo not shown) [Morphine-6-glucuronide maleate]", "assigned class": "Not met"}

Below 0.9% on Total Known? Entry CN1CCC23c4c5ccc(O)c4OC2C(OC2OC(C(=O)O)C(O)C(O)C2O)C=CC3C1C5.CN1CCC23c4c5ccc(O)c4OC2C(OC2OC(C(=O)O)C(O)C(O)C2O)C=CC3C1C5.O=S(=O)(O)O (stereo not shown) [Morphine-6-glucuronide sulphate] Not met

hey, is Total Known for CN1CCC23c4c5ccc(O)c4OC2C(OC2OC(C(=O)O)C(O)C(O)C2O)C=CC3C1C5.O=P(O)(O)O (stereo not shown) [Morphine-6-glucuronide phosphate] lower than 0.9% or not? Met
